PROCEDURE_TEXT: Tissue levels of PCB 95 and OH-PCB metabolites by GC-ECD
Format: in vivo, female C57Bl/6 mice
CONDITION_SET: female, C57Bl/6, mouse, brain, po
QUANTITY_NAME: concentration at 24 h

Entry Clc1ccc(Cl)c(-c2c(Cl)ccc(Cl)c2Cl)c1 [PCB 95, 2,2′,3,5′,6-pentachlorobiphenyl] , concentration at 24 h reported as 37 to 360 ng/g
